- Measurement Description: Plasma and brain concentration in rats (after PTZ-kindling)
- Type: in vivo
- Measurement Parameters: rat, plasma, sc, 15 mg/kg s.c., 30 min before, n = 5, read-out: mean blood plasma concentration
Test Readout: concentration at 30 min (µM)

molecule="O=C(NCC1(N2CCN(c3ccccc3)CC2)CCOCC1)c1cccnc1Sc1ccccc1 [JNJ-47965567]" u=µM measured_result=4

---

- Assay System: rat P2X7R (Rattus norvegicus, UniProt Q64663)
- Construct: expressed in transfected cells; host or cells: HEK293 Flp-In T-REx (HEKrP2X7), tetracycline-induced
- Sequence (Q64663 whole entry): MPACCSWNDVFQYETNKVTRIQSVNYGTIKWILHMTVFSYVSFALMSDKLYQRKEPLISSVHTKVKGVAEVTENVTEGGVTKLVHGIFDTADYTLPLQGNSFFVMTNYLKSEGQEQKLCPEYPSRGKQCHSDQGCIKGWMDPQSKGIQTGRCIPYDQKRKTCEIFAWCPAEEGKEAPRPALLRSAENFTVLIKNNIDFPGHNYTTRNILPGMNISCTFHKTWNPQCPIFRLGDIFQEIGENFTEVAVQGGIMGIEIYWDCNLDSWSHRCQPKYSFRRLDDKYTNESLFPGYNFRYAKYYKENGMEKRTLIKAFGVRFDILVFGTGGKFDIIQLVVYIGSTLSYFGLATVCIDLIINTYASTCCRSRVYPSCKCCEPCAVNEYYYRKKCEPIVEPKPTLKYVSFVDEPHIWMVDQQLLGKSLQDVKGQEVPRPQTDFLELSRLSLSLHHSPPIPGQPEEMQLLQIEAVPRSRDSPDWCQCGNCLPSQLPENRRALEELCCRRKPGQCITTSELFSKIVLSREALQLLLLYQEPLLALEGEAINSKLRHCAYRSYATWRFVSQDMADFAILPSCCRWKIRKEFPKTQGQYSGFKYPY
- Measurement Description: fluorometric Ca2+ assay (ATP-induced [Ca2+]i response) in HEKrP2X7 cells
- Type: cell-based
- Measurement Parameters: HEKrP2X7 cells, fluo-4, 1 mM ATP; read-out: Potency IC50 ± SEM, Rat P2X7R
pIC50: −log10 of the molar value.
Test Readout: pIC50

compound=O=C(NCC1(N2CCN(c3ccccc3)CC2)CCOCC1)c1cccnc1Sc1ccccc1 rel== measured_result=8.52
compound=Clc1cccc(-c2nnnn2Cc2cccnc2)c1Cl rel== measured_result=6.66
compound="Cc1c(S(=O)(=O)[O-])oc2c1C(=O)C(=O)c1c-2ccc2c1CCCC2(C)C.[Na+] [Tanshinone TIIAS, tanshinone IIS sulfonic sodium]" rel=≤ measured_result=4.52
compound=O=C(CC12CC3CC(CC(C3)C1)C2)Nc1cccc2nc(NCCNCCO)ccc12 rel== measured_result=7.70
compound=CCOc1ccc(Nc2ccc(/C(=C3C=C/C(=[N+](/CC)Cc4cccc(S(=O)(=O)[O-])c4)C=C/3C)c3ccc(N(CC)Cc4cccc(S(=O)(=O)O)c4)cc3C)cc2)cc1 rel== measured_result=7.30
